# measurement.target: Thymidylate synthase (Lactobacillus casei)
# Sequence (P00469 whole entry): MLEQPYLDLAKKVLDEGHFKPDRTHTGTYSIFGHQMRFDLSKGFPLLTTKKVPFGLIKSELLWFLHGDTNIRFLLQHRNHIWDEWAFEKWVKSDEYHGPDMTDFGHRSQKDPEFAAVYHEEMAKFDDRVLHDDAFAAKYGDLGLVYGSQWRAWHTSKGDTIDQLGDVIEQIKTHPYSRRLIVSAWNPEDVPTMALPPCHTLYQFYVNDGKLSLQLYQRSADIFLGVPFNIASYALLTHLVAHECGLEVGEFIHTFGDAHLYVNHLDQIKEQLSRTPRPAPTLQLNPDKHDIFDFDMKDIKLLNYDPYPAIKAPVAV
Exercise: for every item that follows, state its recorded pKi.
Note on units: pKi is unitless, being -log10 of a concentration expressed in mol/L.

**Query** If you can, please state the reported pKi value of O=c1[nH]c(=O)n([C@H]2C[C@H](O)[C@@H](COP(=O)(O)O)O2)cc1C#Cc1ccccc1 .
**Result** 5.70

**Query** Next: O=c1[nH]c(=O)n([C@H]2C[C@H](O)[C@@H](COP(=O)(O)O)O2)cc1Cl
**Result** 6.70

**Query** Next: C#Cc1cn([C@H]2C[C@H](O)[C@@H](COP(=O)(O)O)O2)c(=O)[nH]c1=O
**Result** 7.00

**Query** Next: O=c1[nH]c(=O)n([C@H]2C[C@H](O)[C@@H](COP(=O)(O)O)O2)cc1C#CCO
**Result** 5.52

Every entry's value here was drawn from ChEMBL document CHEMBL1121751.
